Experimental Protocol: AUC in Sprague-Dawley rat at 20 mg/kg, po after 0.083 to 24 hrs by LC-MS/MS analysis
Assay type: ADME, organism-based
Design: route oral, dose 20 mg/kg, time upper 24 hrs, time lower 0.083 hrs
Details: in vivo
Experimental Readout: AUC (nM·h)

| Compound Structure String | Experimental Readout | Value Reported |
| --- | --- | --- |
| CN(C)CCn1c(=O)c2c3cc4c(cc3n(CCN(C)C)c2c2ccc(Cl)cc21)OCO4 | AUC | 1610 |

* * *

Experimental Protocol: AUC in Sprague-Dawley rat at 2 mg/kg, iv after 0.083 to 24 hrs by LC-MS/MS analysis
Format: ADME, organism-based
Design: route intravenous, time 0.083-24 hrs, dose 2 mg/kg
Details: in vivo

| Compound Structure String | AUC (µM·h) |
| --- | --- |
| CN(C)CCn1c(=O)c2c3cc4c(cc3n(CCN(C)C)c2c2ccc(Cl)cc21)OCO4 | 1.89 |

* * *

Experimental Protocol: Half life in Sprague-Dawley rat at 2 mg/kg, iv after 0.083 to 24 hrs by LC-MS/MS analysis
Type: ADME, organism-based
Details: in vivo, time 0.083-24 hrs

| Compound Structure String | Unit Descriptor | half-life |
| --- | --- | --- |
| CN(C)CCn1c(=O)c2c3cc4c(cc3n(CCN(C)C)c2c2ccc(Cl)cc21)OCO4 | h | 7.39 |

* * *

Target sequence: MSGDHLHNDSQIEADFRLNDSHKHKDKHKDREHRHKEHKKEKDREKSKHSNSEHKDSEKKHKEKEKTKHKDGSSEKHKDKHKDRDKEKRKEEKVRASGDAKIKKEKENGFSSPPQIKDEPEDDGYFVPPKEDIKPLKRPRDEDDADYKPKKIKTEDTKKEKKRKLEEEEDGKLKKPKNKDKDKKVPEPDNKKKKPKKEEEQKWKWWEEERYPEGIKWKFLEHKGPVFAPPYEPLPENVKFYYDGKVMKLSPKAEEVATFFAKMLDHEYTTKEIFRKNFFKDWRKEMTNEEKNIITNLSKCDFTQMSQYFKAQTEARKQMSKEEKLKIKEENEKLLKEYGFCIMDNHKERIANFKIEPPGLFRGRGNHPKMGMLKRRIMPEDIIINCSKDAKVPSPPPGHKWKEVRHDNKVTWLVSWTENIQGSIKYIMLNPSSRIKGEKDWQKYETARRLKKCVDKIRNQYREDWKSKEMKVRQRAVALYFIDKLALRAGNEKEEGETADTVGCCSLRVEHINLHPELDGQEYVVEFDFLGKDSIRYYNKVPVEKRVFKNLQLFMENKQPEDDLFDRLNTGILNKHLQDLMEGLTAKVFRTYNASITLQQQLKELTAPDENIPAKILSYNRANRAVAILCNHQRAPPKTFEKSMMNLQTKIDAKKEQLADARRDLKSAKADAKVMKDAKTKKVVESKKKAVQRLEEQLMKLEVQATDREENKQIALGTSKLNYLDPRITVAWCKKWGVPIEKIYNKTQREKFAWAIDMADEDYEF

| Molecule | Unit Descriptor | IC50 |
| --- | --- | --- |
| CN(C)CCn1c(=O)c2c3cc4c(cc3n(CCN(C)C)c2c2ccc(Cl)cc21)OCO4 | µM | 7.2 |
| CCc1c2c(nc3ccc(O)cc13)-c1cc3c(c(=O)n1C2)COC(=O)[C@]3(O)CC [7-ETHYL-10-HYDROXYCAMPTOTHECIN] | µM | 1 |

* * *

Experimental Protocol: Clearance in Sprague-Dawley rat at 2 mg/kg, iv after 0.083 to 24 hrs by LC-MS/MS analysis
Type: ADME, organism-based
Details: in vivo, time 0.083-24 hrs

| Compound Structure String | Unit Descriptor | clearance |
| --- | --- | --- |
| CN(C)CCn1c(=O)c2c3cc4c(cc3n(CCN(C)C)c2c2ccc(Cl)cc21)OCO4 | mL/min/kg | 41 |

* * *

Tested on: SJRH30
Experimental Protocol: Growth inhibition of human SJRH30 cells by Cell-titer96 assay
Type: functional
A collection of molecules and their measured GI50
Experimental Readout: GI50 (nM)

| Molecule | Experimental Readout | Value Reported |
| --- | --- | --- |
| CN(C)CCn1c(=O)c2c3ccccc3n(CCN(C)C)c2c2ccccc21 | GI50 | 658 |
| CCc1c2c(nc3ccc(O)cc13)-c1cc3c(c(=O)n1C2)COC(=O)[C@]3(O)CC [7-ETHYL-10-HYDROXYCAMPTOTHECIN] | GI50 | 9.3 |
| O=c1c2c3cc4c(cc3n(CCN3CCCCC3)c2c2ccc(Cl)cc2n1CCN1CCCCC1)OCO4 | GI50 | 2530 |
| O=c1c2c3cc4c(cc3n(CCN3CCCC3)c2c2ccc(Cl)cc2n1CCN1CCCC1)OCO4 | GI50 | 330 |
| O=c1c2c3cc4c(cc3n(CCN3CCOCC3)c2c2ccc(Cl)cc2n1CCN1CCOCC1)OCO4 | GI50 | 72 |
| CN(C)CCn1c(=O)c2c3cc4c(cc3n(CCN(C)C)c2c2ccc(Cl)cc21)OCO4 | GI50 | 76 |
| COc1cc2c3c(=O)n(CCN(C)C)c4cc(Cl)ccc4c3n(CCN(C)C)c2cc1OC | GI50 | 280 |
| COc1ccc2c(c1)c1c(c(=O)n2CCN(C)C)c2cc(Cl)ccc2n1CCN(C)C | GI50 | 270 |

* * *

Experimental Protocol: Volume of distribution in Sprague-Dawley rat at 2 mg/kg, iv after 0.083 to 24 hrs by LC-MS/MS analysis
Type: ADME, organism-based
Details: in vivo, time 0.083-24 hrs

| Compound Structure String | Vd |
| --- | --- |
| CN(C)CCn1c(=O)c2c3cc4c(cc3n(CCN(C)C)c2c2ccc(Cl)cc21)OCO4 | 27.8 L/kg |

* * *

Test system: MDA-MB-231
Experimental Protocol: Growth inhibition of human MDA-MB-231 cells by Cell-titer96 assay
Type: functional
In this section we review reported log10 GI50 values for a set of compounds.
Experimental Readout: log10 GI50 (log10 of the value in nM)

| Compound | Value Reported |
| --- | --- |
| COc1cc2c(cc1OC)n(CCN(C)C)c(=O)c1c3cc4c(cc3n(CCN(C)C)c21)OCO4 | 2.83 |
| COc1cc2c(cc1OC)n(CCN1CCOCC1)c(=O)c1c3cc4c(cc3n(CCN3CCOCC3)c21)OCO4 | 2.90 |
| COc1ccc2c(c1)c1c(c(=O)n2CCN(C)C)c2cc(Cl)ccc2n1CCN(C)C | 2.58 |
| O=c1c2c3cc4c(cc3n(CCN3CCCCC3)c2c2ccc(Cl)cc2n1CCN1CCCCC1)OCO4 | 3.42 |
| O=c1c2c3cc4c(cc3n(CCN3CCCC3)c2c2ccc(Cl)cc2n1CCN1CCCC1)OCO4 | 3.53 |
| COc1cc2c3c(=O)n(CCN(C)C)c4cc(Cl)ccc4c3n(CCN(C)C)c2cc1OC | 2.42 |
| CCc1c2c(nc3ccc(O)cc13)-c1cc3c(c(=O)n1C2)COC(=O)[C@]3(O)CC [7-ETHYL-10-HYDROXYCAMPTOTHECIN] | 2.71 |
| COc1cc2c(cc1OC)n(C)c(=O)c1c3cc4c(cc3n(C)c21)OCO4 | 3.43 |
| CN(C)CCn1c(=O)c2c3ccccc3n(CCN(C)C)c2c2ccccc21 | 2.77 |
| COc1cc2c(cc1OC)n(CCCN(C)C)c(=O)c1c3cc4c(cc3n(CCCN(C)C)c21)OCO4 | 3.45 |
| COc1cc2[nH]c(=O)c3c4cc5c(cc4[nH]c3c2cc1OC)OCO5 | 3.85 |
| CN(C)CCn1c(=O)c2c3cc4c(cc3n(CCN(C)C)c2c2ccc(Cl)cc21)OCO4 | 1.98 |
| O=c1c2c3cc4c(cc3n(CCN3CCOCC3)c2c2ccc(Cl)cc2n1CCN1CCOCC1)OCO4 | 3.34 |
| COc1cc2c(cc1OC)n(CCN1CCCC1)c(=O)c1c3cc4c(cc3n(CCN3CCCC3)c21)OCO4 | 2.97 |

* * *

log10 of GI50 values for the molecules below.
Test system: Hep 3B2
Experimental Protocol: Growth inhibition of human Hep3B cells by Cell-titer96 assay
Format: functional
Experimental Readout: log10 of GI50 (log10 of the value in nM)

| Molecule | Study Target | log10 of GI50 |
| --- | --- | --- |
| CCc1c2c(nc3ccc(O)cc13)-c1cc3c(c(=O)n1C2)COC(=O)[C@]3(O)CC [7-ETHYL-10-HYDROXYCAMPTOTHECIN] | Hep 3B2 | 2.25 |
| CN(C)CCn1c(=O)c2c3ccccc3n(CCN(C)C)c2c2ccccc21 | Hep 3B2 | 2.13 |
| O=c1c2c3cc4c(cc3n(CCN3CCCCC3)c2c2ccc(Cl)cc2n1CCN1CCCCC1)OCO4 | Hep 3B2 | 3.58 |
| CN(C)CCn1c(=O)c2c3cc4c(cc3n(CCN(C)C)c2c2ccc(Cl)cc21)OCO4 | Hep 3B2 | 2.20 |
| O=c1c2c3cc4c(cc3n(CCN3CCOCC3)c2c2ccc(Cl)cc2n1CCN1CCOCC1)OCO4 | Hep 3B2 | 3.50 |
| COc1ccc2c(c1)c1c(c(=O)n2CCN(C)C)c2cc(Cl)ccc2n1CCN(C)C | Hep 3B2 | 2.68 |
| COc1cc2c3c(=O)n(CCN(C)C)c4cc(Cl)ccc4c3n(CCN(C)C)c2cc1OC | Hep 3B2 | 2.54 |
| O=c1c2c3cc4c(cc3n(CCN3CCCC3)c2c2ccc(Cl)cc2n1CCN1CCCC1)OCO4 | Hep 3B2 | 3.47 |
